- target-under-test: PKR(G332S) (Homo sapiens, UniProt P30613, G332S)
- Sequence (P30613 whole entry G332S): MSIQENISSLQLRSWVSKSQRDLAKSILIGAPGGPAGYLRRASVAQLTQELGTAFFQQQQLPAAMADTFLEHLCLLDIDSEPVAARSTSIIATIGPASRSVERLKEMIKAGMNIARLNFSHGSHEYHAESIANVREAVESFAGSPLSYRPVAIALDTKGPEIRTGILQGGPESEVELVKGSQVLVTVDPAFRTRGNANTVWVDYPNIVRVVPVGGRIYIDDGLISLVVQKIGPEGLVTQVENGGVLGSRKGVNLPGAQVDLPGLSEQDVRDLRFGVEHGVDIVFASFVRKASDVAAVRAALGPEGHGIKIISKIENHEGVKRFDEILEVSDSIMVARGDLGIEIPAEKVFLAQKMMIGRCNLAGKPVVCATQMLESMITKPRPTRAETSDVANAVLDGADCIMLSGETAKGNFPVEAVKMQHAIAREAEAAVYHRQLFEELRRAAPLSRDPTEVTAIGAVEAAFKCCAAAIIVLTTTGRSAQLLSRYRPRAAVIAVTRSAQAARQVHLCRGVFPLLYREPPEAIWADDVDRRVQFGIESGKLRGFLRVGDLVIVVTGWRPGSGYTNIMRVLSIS
- experiment-summary: Luminescence Biochemical Assay (Kinase Glo Plus), PKR G332S mutant
- measurement-parameters: with FBP, read-out: AC50 LUM KGP FBP AC50 μM gmean (column A)
measure-name: AC50

Recorded results for 5 compounds are shown here.
>>> print(df.to_string())
                                   compound  reported_result
0  Cc1cc(CNC(=O)N2CC3=C(C2)CN(S(=O)(=O)c2cccnc2)C3)no1       1 to 40 µM
1  O=C(C(O)c1cccnc1)N1CC2=C(C1)CN(S(=O)(=O)c1ccc(OC(F)F)cc1)C2 (stereo not shown)         ≤ 0.1 µM
2  O=C(C(O)c1ccc(C(F)(F)F)cc1)N1CC2=C(C1)CN(S(=O)(=O)c1ccc(OC(F)F)cc1)C2 (stereo not shown)      0.1 to 1 µM
3  COc1ccc(CNC(=O)N2CC3=C(C2)CN(S(=O)(=O)c2ccc4ncsc4c2)C3)cc1         ≤ 0.1 µM
4  O=C([C@H](O)c1ccccc1)N1CC2=C(C1)CN(S(=O)(=O)c1cccc(OC(F)F)c1)C2         ≤ 0.1 µM

Note to self: AC50 recorded for Cc1nn(C)c(Cl)c1S(=O)(=O)N1CC2=C(CN(C(=O)[C@H](O)c3ccccc3)C2)C1 was 1 to 40 µM

Entry under test: COc1cccc(CNC(=O)N2CC3=C(C2)CN(S(=O)(=O)c2cccc4cnccc24)C3)c1 . Its AC50 was 1 to 40 µM
